Catalogue of molecules with associated pIC50
molecular target: FAK (Homo sapiens (Human))
Sequence (Q05397 whole entry): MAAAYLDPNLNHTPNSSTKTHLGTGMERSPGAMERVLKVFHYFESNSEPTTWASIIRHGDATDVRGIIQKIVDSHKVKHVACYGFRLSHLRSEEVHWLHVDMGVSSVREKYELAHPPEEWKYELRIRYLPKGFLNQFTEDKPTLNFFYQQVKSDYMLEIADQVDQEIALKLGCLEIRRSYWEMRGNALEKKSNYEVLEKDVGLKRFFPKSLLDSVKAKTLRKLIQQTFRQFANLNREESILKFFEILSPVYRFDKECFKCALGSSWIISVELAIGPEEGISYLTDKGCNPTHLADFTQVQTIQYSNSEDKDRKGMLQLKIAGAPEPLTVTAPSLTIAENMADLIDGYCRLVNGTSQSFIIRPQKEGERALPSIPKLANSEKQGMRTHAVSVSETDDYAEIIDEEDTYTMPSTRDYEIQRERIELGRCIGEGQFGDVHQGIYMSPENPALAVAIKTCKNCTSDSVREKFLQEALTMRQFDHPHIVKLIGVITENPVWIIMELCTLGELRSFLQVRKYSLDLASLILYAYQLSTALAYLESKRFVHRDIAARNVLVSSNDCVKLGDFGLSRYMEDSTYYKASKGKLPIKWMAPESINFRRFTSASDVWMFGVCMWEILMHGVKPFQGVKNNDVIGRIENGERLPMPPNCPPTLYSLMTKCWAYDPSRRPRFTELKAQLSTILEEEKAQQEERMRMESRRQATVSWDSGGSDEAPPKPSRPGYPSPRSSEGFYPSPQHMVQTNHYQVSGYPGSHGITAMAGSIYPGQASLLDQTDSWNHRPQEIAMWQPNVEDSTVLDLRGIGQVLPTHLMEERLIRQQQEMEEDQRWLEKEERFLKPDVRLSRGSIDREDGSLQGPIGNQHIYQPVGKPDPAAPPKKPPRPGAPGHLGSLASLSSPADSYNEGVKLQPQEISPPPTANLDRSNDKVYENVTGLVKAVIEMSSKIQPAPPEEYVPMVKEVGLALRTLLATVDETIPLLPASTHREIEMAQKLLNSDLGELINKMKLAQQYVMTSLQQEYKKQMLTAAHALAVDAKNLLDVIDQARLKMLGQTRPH
pIC50: −log10 of the molar value.

C=CC(=O)Nc1ccccc1Nc1nc(Nc2ccc3c(c2)OCCOCCOCCO3)ncc1F    < 7.00
C=CC(=O)Nc1cccc(-c2nc(Nc3ccc4c(c3)OCCOCCOCCO4)ncc2F)c1    < 6.00

Observed pIC50, FAK (Homo sapiens (Human)), C=CC(=O)Nc1cccc(Nc2nc(Nc3ccc4c(c3)OCCOCCOCCO4)ncc2F)c1 : < 6.00
